The molecules listed here are annotated with their IC50.
- Measured target: Amine oxidase [flavin-containing] B (Homo sapiens, UniProt P27338)
- Sequence (P27338 whole entry): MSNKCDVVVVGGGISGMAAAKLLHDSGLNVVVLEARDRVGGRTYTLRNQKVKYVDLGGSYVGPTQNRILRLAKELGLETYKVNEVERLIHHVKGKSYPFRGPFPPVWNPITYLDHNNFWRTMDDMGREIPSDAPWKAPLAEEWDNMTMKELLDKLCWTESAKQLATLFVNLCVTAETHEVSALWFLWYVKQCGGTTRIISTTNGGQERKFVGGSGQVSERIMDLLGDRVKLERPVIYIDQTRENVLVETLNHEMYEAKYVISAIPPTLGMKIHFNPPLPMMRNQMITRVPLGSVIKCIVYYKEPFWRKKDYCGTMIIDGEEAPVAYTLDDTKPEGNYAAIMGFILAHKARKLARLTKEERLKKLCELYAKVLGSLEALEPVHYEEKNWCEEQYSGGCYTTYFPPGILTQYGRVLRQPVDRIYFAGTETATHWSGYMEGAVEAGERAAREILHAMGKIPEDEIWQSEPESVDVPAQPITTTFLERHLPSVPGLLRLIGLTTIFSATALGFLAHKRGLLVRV
Kindly answer with a numeric value in nM, unit omitted.

// recorded IC50 for `C/C(=N\Nc1nc(-c2cccc([N+](=O)[O-])c2)cs1)c1ccsc1` : 2.5

Please examine the following record next.
// recorded IC50 for `C/C(=N\Nc1nc(-c2cccc([N+](=O)[O-])c2)cs1)c1cccs1` : 6.8

###

- Measured target: Amine oxidase [flavin-containing] A (Homo sapiens)
- Sequence (P21397 whole entry): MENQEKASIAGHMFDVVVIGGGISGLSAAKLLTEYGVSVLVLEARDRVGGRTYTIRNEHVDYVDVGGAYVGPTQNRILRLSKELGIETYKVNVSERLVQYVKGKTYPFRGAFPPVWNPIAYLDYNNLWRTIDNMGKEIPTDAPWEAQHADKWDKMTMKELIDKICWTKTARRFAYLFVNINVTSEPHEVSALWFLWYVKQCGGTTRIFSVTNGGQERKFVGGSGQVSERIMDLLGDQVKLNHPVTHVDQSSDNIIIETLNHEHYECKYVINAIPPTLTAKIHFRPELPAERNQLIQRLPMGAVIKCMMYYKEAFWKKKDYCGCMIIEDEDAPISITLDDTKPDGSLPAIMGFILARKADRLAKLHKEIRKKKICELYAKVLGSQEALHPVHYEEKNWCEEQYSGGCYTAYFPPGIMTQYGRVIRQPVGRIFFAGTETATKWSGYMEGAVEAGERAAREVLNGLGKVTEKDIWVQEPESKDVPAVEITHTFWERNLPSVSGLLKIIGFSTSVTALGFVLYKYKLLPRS
- Method notes: Binding affinity to human recombinant MAO-A assessed as inhibition constant by MAO-GloTM method
Assay metric: Ki (nM)
Kindly answer with a numeric value in nM, unit omitted.

// recorded Ki for `O=c1cc(-c2ccccc2)oc2c(Cl)cc(Cl)cc12` : 7.4
